Test: chemical genetic growth profiling, strain panel (AID 1159580);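 further: tested at 20 µM; growth read once vehicle control cultures reached saturation at 30 °C; 1 = growth at the plate median or of vehicle wells; lower values mean less growth of the strain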
Details: S. cerevisiae deletion strains, growth OD, locus YNL183C, strain NPR1, hits give low values
The campaign covered roughly 5,500 compounds. About 2,000 (36%) were called active. Inconclusive results (about 18%) are left out. The list shows a part of the results.
The following compounds are shown together with reported normalized growth values.
Format: numeric value only, no unit, no commentary.

                                   compound        result_type  value
0          CCN(CC)CCNC(=O)c1cc(Br)c(N)cc1OC  normalized growth  0.956
1  CC(=O)O[C@H]1[C@@H]2[C@@H](OC(=O)Cc3ccccc3)[C@@H](C)C[C@]2(OC(C)=O)C(=O)/C(C)=C/[C@H]2[C@H](CC[C@@]13CO3)C2(C)C  normalized growth  0.909
2  CCC(=O)O[C@H]1CCC2C3CCC4=CC(=O)CC[C@]4(C)C3CC[C@@]21C (some centres undefined)  normalized growth   0.89
3  CC[C@H](/C=C/C(C)C1CCC2C3CCC4=CC(=O)CC[C@]4(C)C3CC[C@]12C)C(C)C (some centres undefined)  normalized growth  0.996
4                                  NCCSSCCN  normalized growth      1

Sample `Nc1nc2ccc(OC(F)(F)F)cc2s1` — what was its normalized growth?
0.944

Cool, now CC(=O)OCC(=O)[C@@]1(O)[C@@H](C)CC2C3CCC4=CC(=O)C=C[C@]4(C)[C@@]3(F)[C@@H](O)C[C@@]21C (some centres undefined)
0.991

Cool, now C[C@]12CCC(=O)C=C1CCC1C2CC[C@@]2(C)C1CC[C@@H]2O (some centres undefined)
0.988

Cool, now CC(=O)O[C@@H]1C[C@@]2(C)C(CC[C@@H]2C(C)=O)C2CCC3=CC(=O)CC[C@]3(C)C21 (some centres undefined)
0.984

----------
Experiment: chemical genetic growth profiling, strain panel (AID 1159580)
Conditions: S. cerevisiae deletion strains, growth OD, locus YBR279W, strain paf1, hits give low values
Screen size: about 5,500 compounds; about 2,000 (36%) were called active. Not shown: some 18% with an inconclusive outcome. This is one part of the list.
result type: normalized growth

For orientation, consider the following solved cases.
>>> df
                                   compound        result_type             value
0  COc1cc2c(cc1OC)[C@@H]1C(=O)c3ccc(OC)c(CC=C(C)C)c3O[C@@H]1CO2  normalized growth   1.01 (inactive)
1       CN(C)CC/C=C1\c2ccccc2Sc2ccc(Cl)cc21  normalized growth    0.904 (active)
2  COc1cc2c(cc1OC)[C@@H]1C(=O)c3ccc4oc(C(C)C)cc4c3O[C@@H]1CO2  normalized growth  0.996 (inactive)
3  COc1cc2c(cc1OC)[C@@H]1C(=O)c3ccc4c(c3O[C@@H]1CO2)C=CC(C)(C)O4  normalized growth   1.01 (inactive)

Sample N=c1ccn2c(n1)O[C@@H]1C2O[C@H](CO)[C@H]1O (stereo not given in full) — what was its normalized growth?
0.992 (inactive)

----------
Experiment: chemical genetic growth profiling, strain panel (AID 1159580)
Details: S. cerevisiae deletion strains, growth OD, locus YDR150W, strain NUM1, hits give low values
About 2,000 (36%) of roughly 5,500 compounds were called active. About 18% were inconclusive and are not listed. The list shows a part of the results.
The following compounds are shown together with reported normalized growth values.
Format: numeric value only, no unit, no commentary.

compound	normalized growth
C=Cc1c2[nH]c(c1C)C=c1[nH]c(c(C)c1C=C)=CC1N=C(C=c3[nH]c(c(C)c3CCC(=O)O)=C2)C(CCC(=O)O)=C1C (configuration not stated)	0.973

Sample `CC(C)(C)c1cc(-c2csc(-c3ccc(Cl)cc3)n2)cc(C(C)(C)C)c1O` — what was its normalized growth?
0.943

Cool, now `Cc1c(O)c(C(=O)CC(C)C)c2oc3c(C(=O)CC(C)C)c(O)c(C)c(O)c3c2c1O`
1.01

Cool, now CC(NCCc1ccc(O)cc1)C(O)c1ccc(O)cc1 (configuration not stated)
0.994

Cool, now `Cc1ccc(-c2csc(-c3ccc(Cl)cc3)n2)c(C)c1`
0.987

Cool, now COc1ccc(OC)c(C(O)C(C)N)c1 (configuration not stated)
1.02

Cool, now `CSc1nnnn1-c1c(C)cccc1C`
1.02

Cool, now CC(C(=O)O)c1cccc(Oc2ccccc2)c1 (configuration not stated)
0.947

----------
Test: chemical genetic growth profiling, strain panel (AID 1159580);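 further: tested at 20 µM; growth read once vehicle control cultures reached saturation at 30 °C; 1 = growth at the plate median or of vehicle wells; lower values mean less growth of the strain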
Details: S. cerevisiae deletion strains, growth OD, locus YIL125W, strain kgd1, hits give low values
Out of some 5,500 compounds screened, about 2,000 (36%) were called active. About 18% were inconclusive and are not listed. Some of the results follow.
The following compounds are shown together with reported normalized growth values.
Format: numeric value only, no unit, no commentary.

compound	normalized growth
CC1(C)OC(=O)NC1=O	0.988
NC(=O)c1ccc[n+]([C@@H]2O[C@H](COP(=O)([O-])OP(=O)(O)OC[C@H]3O[C@@H](n4cnc5c(N)ncnc54)[C@H](O)[C@@H]3O)[C@@H](O)[C@H]2O)c1	0.986
COc1ccc2c(C)cc(=O)oc2c1	1.04
CC(=O)OCC[N+](C)(C)C	1.03
NCCSSCCN	0.996

Sample NCC1CCC(C(=O)O)CC1 (stereo unspecified) — what was its normalized growth?
0.995

Cool, now `O=C(O)c1cc2ccccc2c(Cc2c(O)c(C(=O)O)cc3ccccc23)c1O`
0.994

Cool, now `COC1=C(OC)C(=O)C(C/C=C(\C)CC/C=C(\C)CC/C=C(\C)CC/C=C(/C)CC/C=C(\C)CC/C=C(\C)CC/C=C(\C)CC/C=C(\C)CC/C=C(\C)CCC=C(C)C)=C(C)C1=O`
0.998

Cool, now `CC(C)(OC(=O)c1ccccc1)[C@@H]1Cc2cc3ccc(=O)oc3cc2O1`
1

Cool, now CO[C@H]1[C@H](O)[C@H](O[C@H]2CC[C@]3(C)C4CC[C@]5(C)C(C6=CC(=O)OC6)CC[C@]5(O)C4CC[C@@H]3C2)O[C@@H](C)[C@@H]1O (stereo partly specified)
0.997

Cool, now `COc1ccc2c(c1)OCc1c-2oc2cc(OC)ccc12`
0.996

----------
The following compounds are shown together with reported normalized growth values.
Experiment: chemical genetic growth profiling, strain panel (AID 1159580);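 further: tested at 20 µM; growth read once vehicle control cultures reached saturation at 30 °C; 1 = growth at the plate median or of vehicle wells; lower values mean less growth of the strain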
Settings: S. cerevisiae deletion strains, growth OD, locus YHR200W, strain rpn10, hits give low values
The whole screen tested about 5,500 compounds, of which about 2,000 (36%) were called active. Another 18% or so got no clear call; they are omitted. Some of the results follow.
Format: numeric value only, no unit, no commentary.

For orientation, consider the following solved cases.
In [3]: df
Out[3]:
                                   compound  value
0  CC(=O)C1CCC2C3CC(=O)C4=CC(=O)CCC4(C)C3CCC12C (stereo unspecified)  0.982
1       CN(C)CC/C=C1\c2ccccc2Sc2ccc(Cl)cc21   1.02
2  CC[C@H](/C=C/C(C)C1CCC2C3CCC4=CC(=O)CC[C@]4(C)C3CC[C@]12C)C(C)C (stereo partly specified)      1

Sample CC(C(=O)O)c1cccc(Oc2ccccc2)c1 (stereo unspecified) — what was its normalized growth?
0.98

Cool, now CCC(=O)O[C@H]1CCC2C3CCC4=CC(=O)CC[C@]4(C)C3CC[C@@]21C (stereo partly specified)
0.943

Cool, now COc1cc(NC(C)CCCN)c2ncccc2c1 (stereo unspecified)
1

Cool, now Cc1cccc(C)c1OCC(C)N (stereo unspecified)
0.973

Cool, now `C[C@@H]1[C@H]2[C@H](O[C@@H]3O[C@H](CO)[C@@H](O)[C@H](O)[C@H]3O)OC=C(C(=O)O)[C@H]2C[C@@H]1O`
0.99

Cool, now `COc1cc(NS(=O)(=O)c2ccc(N)cc2)nc(OC)n1`
0.993

Cool, now C[C@]12CCC(=O)C=C1CCC1C2CC[C@@]2(C)C1CC[C@@H]2O (stereo partly specified)
1.03

Cool, now COc1ccc(OC)c(C(O)C(C)N)c1 (stereo unspecified)
0.993

----------
The following molecules are shown together with reported normalized growth values.
Assay: chemical genetic growth profiling, strain panel (AID 1159580);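 further: tested at 20 µM; growth read once vehicle control cultures reached saturation at 30 °C; 1 = growth at the plate median or of vehicle wells; lower values mean less growth of the strain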
Conditions: S. cerevisiae deletion strains, growth OD, locus YDL040C, strain nat1, hits give low values
The campaign covered roughly 5,500 compounds. About 2,000 (36%) were called active. Not shown: some 18% with an inconclusive outcome. The list shows a part of the results.
Format: numeric value only, no unit, no commentary.

Sample `COc1cc(/C=C/C(=O)/C=C(O)/C=C/c2ccc(O)c(OC)c2)ccc1O` — what was its normalized growth?
0.0875

Cool, now `CCCCCCNC(=O)n1cc(F)c(=O)[nH]c1=O`
0.991

Cool, now CC1CC2C3CCC4=CC(=O)C=C[C@]4(C)[C@@]3(F)[C@@H](O)C[C@]2(C)[C@@]1(O)C(=O)CO (stereo not given in full)
0.975

Cool, now CC(NCCc1ccc(O)cc1)C(O)c1ccc(O)cc1 (stereo not given)
0.99

Cool, now `COc1ccc2c(C)cc(=O)oc2c1`
0.99

Cool, now CC1=C(CC(=O)O)c2cc(F)ccc2/C1=C\c1ccc(S(C)=O)cc1 (stereo not given)
1.01

Cool, now CCN(CCO)CCCC(C)Nc1ccnc2cc(Cl)ccc12 (stereo not given)
0.999

Cool, now CC(CCc1ccccc1)NC(C)C(O)c1ccc(O)cc1 (stereo not given)
1
